- System: Plasmodium falciparum
- protocolSummary: NOVARTIS: Inhibition of Plasmodium falciparum W2 (drug-resistant) proliferation in erythrocyte-based infection assay
- Format: functional, organism-based
- experimentalContext: Plasmodium falciparum, W2; read-out: EC50
endpointName: EC50 (nM)
Please reply with the bare figure in nM and do not write the unit itself.

Req: Give reported EC50 value for COc1ccccc1C(=O)N1CCN(Cc2ccc3ccccc3c2)CC1
Resp: 4860

Req: Read the entry Cc1ccc(C2C3=C(CC(C)(C)CC3=O)N(Cc3ccc4c(c3)OCO4)C3=C2C(=O)CC(C)(C)C3)cc1 and write its reported EC50.
Resp: 1770

Req: Please list EC50 recorded for the molecule O=C(CCl)Nc1ccc(Cl)cc1
Resp: 342

Req: Hello, please tell me recorded EC50 for this one: COc1ccc(OC)c(-c2ccc(O)c(CNCCc3ccccc3)c2)c1
Resp: 77.1

Req: Give the value of EC50 reported for the following: CN1CCN(C(c2ccco2)c2sc3ncnn3c2O)CC1 (stereo unspecified)
Resp: 1080

Req: Read the entry Cc1ccc(Nc2nc(NCc3ccco3)c3ccccc3n2)cc1 and write its reported EC50.
Resp: 216
